Data provenance: patent US11753408B2

testDetails: Solubility at pH 7.4
Assay type: physicochemical
propertyName: Sol @ pH 7.4

> print(dat)
                                   compound  propertyname      result
1  CCN(CC)CCNC(=O)c1ccc(-n2c(=O)ccc3cnc4ccc(-c5ccc(Cl)cc5)cc4c32)c(OC)c1 [Compound 249]  Sol @ pH 7.4   >82 ug/mL
2  O=C(NC1C2CNCC21)c1ccc(-n2c(=O)ccc3cnc4ccc(-c5ccc(Cl)cc5)cc4c32)cc1 (stereo not shown) [Compound 172]  Sol @ pH 7.4   2.3 ug/mL
3  CCCCNC(=O)c1ccc(-n2c(=O)ccc3cnc4ccc(-c5ccc(Cl)cc5)cc4c32)cc1 [Compound 209]  Sol @ pH 7.4    <1 ug/mL
4  O=C(c1ccc(-n2c(=O)ccc3cnc4ccc(-c5ccc(Cl)cc5)cc4c32)cc1)N1CCC1 [Compound 108]  Sol @ pH 7.4  <1.0 ug/mL
5  O=C(NCCN1CCNCC1)c1ccc(-n2c(=O)ccc3cnc4ccc(-c5ccc(Cl)cc5)cc4c32)cc1 [Compound 98]  Sol @ pH 7.4     0 ug/mL
6  O=C(c1ccc(-n2c(=O)ccc3cnc4ccc(-c5ccc(CN6CCC6)cc5)cc4c32)cc1)N1CCOCC1 [Compound 189]  Sol @ pH 7.4   >78 ug/mL
7  COc1cc(C(=O)N2CCOCC2)ccc1-n1c(=O)ccc2cnc3ccc(-c4ccc(CN(C)C)cc4)cc3c21 [Compound 193]  Sol @ pH 7.4   >81 ug/mL
